Classify as follows. Reported melting point greater than or equal to 80 °C: Yes. Reported melting point below: No.

Worked examples follow.
{"COMPOUND": "Cc1ccc(Cl)c(N)c1", "GROUP LABEL": "No"}
{"COMPOUND": "O=[N+]([O-])c1ccc(Cl)c(CO)c1", "GROUP LABEL": "No"}
{"COMPOUND": "N#CCCO [3-hydroxypropionitrile]", "GROUP LABEL": "No"}
{"COMPOUND": "COC(=O)c1cc(Cl)ccc1N [methyl 2-amino-5-chlorobenzoate]", "GROUP LABEL": "No"}
{"COMPOUND": "CCCOC(=O)c1ccc(O)cc1 [Propyl 4-hydroxybenzoate]", "GROUP LABEL": "Yes"}
{"COMPOUND": "Clc1cc2c(cc1Cl)-c1cc(Cl)c(Cl)cc1-2", "GROUP LABEL": "Yes"}
{"COMPOUND": "Cc1c(N(C)C)c(=O)n(-c2ccccc2)n1C [aminopyrine]", "GROUP LABEL": "Yes"}
{"COMPOUND": "CCCCC(=O)CCCC", "GROUP LABEL": "No"}

Assess whether reported melting point for CNC[C@H](O)c1ccc(O)c(O)c1 [Epinephrine] sits at 80 °C or higher.
Yes

---

MEASURED QUANTITY: melting point (°C)
Reply numerically in °C, unit not repeated.

The following compounds have reported results that may help.
{"COMPOUND": "OC(c1ccccc1)(c1ccccc1)C(O)(c1ccccc1)c1ccccc1 [1,1,2,2-Tetraphenylethane-1,2-diol]", "MEASURED QUANTITY": "melting point", "RECORDED RESULT": 171}
{"COMPOUND": "COc1cc(C=O)cc(Cl)c1O [5-chlorovanillin]", "MEASURED QUANTITY": "melting point", "RECORDED RESULT": 164}

Quick note, melting point for NC(=O)NCCC[C@H](N)C(=O)O [L-Citrulline] landed at 214

---

melting point listing for selected compounds.
Quick note: unit goes after the number.

As a guide, the following entries are already answered.
{"COMPOUND": "O=[N+]([O-])c1ccc(/N=N/c2c(O)ccc3ccccc23)cc1 [1-[(E)-(4-Nitrophenyl)diazenyl]-2-naphthol]", "RECORDED RESULT": "250 °C"}
{"COMPOUND": "CC1=CC(c2c(C)cc(C)cc2C)N=N1 (stereo unspecified)", "RECORDED RESULT": "129 °C"}
{"COMPOUND": "Cc1c(C)c(C)c(CCl)c(C)c1C [2,3,4,5,6-pentamethylbenzyl chloride]", "RECORDED RESULT": "83 °C"}

The recorded melting point for entry CCC(C)(O)C#CC(C)(O)CC (stereo unspecified) equals 54 °C

Item: Cc1cccc(C)c1O [2,6-dimethylphenol] | melting point: 49 °C

So, COc1cc(C=O)cc(OC)c1OC ? Its melting point was 75 °C

melting point reading for Cc1ccc(S(=O)(=O)Cl)cc1[N+](=O)[O-] [4-methyl-3-nitrobenzenesulfonyl chloride] : 35 °C

GET /value?item= c1ccc2c(c1)cc1ccc3cccc4ccc2c1c34 [Benzo[pqr]tetraphene] &field=melting point returns 176 °C

The value of melting point measured for the compound CC(=O)Nc1ccccc1C(C)C [2'-isopropylacetanilide] turned out to be 73 °C

Query N#CCS(=O)(=O)c1ccc(C(F)(F)F)cc1 [[4-(trifluoromethyl)phenylsulfonyl]acetonitrile] yields melting point of 144 °C

Data point: Clc1ccc(-c2ccccc2)cc1 ; melting point = 78 °C
